Test: Average cytotoxicity over the three non-malignant cells
Format: cell-based, human
Conditions: female, human, normal oral cells HGF, HPLF and HPC (average over the three)
From the text: […]
readout.name: CC50 at 48 h

Answer with reported CC50 at 48 h of O=C1/C(=C/c2ccc([N+](=O)[O-])cc2)CN(C(=O)C(Cl)Cl)C/C1=C\c1ccc([N+](=O)[O-])cc1 1.44 µM

Please report the measured CC50 at 48 h for COc1cccc2c1C(=O)c1c(O)c3c(c(O)c1C2=O)C[C@@](O)(C(=O)CO)C[C@@H]3O[C@H]1C[C@H](N)[C@H](O)[C@H](C)O1 [DXR, doxorubicin, reference compound] > 9.55 µM

Hello, please tell me recorded CC50 at 48 h for this one: O=c1[nH]cc(F)c(=O)[nH]1 [Compound 5-FU, 5-fluorouracil, reference compound] > 996 µM
